Increase by entry:
test system: DC3F/AD; experiment: Increase in adriamycin uptake in modulator-treated cells relative to untreated cells at a concentration of 10 uM; format: functional, Cricetulus griseus

Here are 4 molecules together with their reported answers.
Q: Give the measured Increase of C=CCNc1nc(NCC=C)nc(N2CCC(N(C)CC(c3ccccc3)c3ccccc3)CC2)n1 .
Result: 27.9

Q: Give the measured Increase of CN(C)c1nc(N(C)C)nc(N2CCC(NCC3c4ccccc4CCc4ccccc43)CC2)n1 .
Result: 30.6

Q: Give the measured Increase of C=CCNc1nc(NCC=C)nc(NCC(O)CN2CCN(C3c4ccccc4CCc4ccccc43)CC2)n1 (stereo not given) .
Result: 27.6

Q: Give the measured Increase of C=CCNc1nc(NCC=C)nc(N2CCN(C(c3ccc(F)cc3)c3ccc(F)cc3)CC2)n1.CS(=O)(=O)O .
Result: 17.9

Turning now to a further molecule:
Q: Give the measured Increase of COc1ccc(CCN(C)CCCC(C#N)(c2ccc(OC)c(OC)c2)C(C)C)cc1OC (stereo not given) .
Result: 7.5

---

test system: DC3F/AD; assay: In vitro activity in DC-3F/AD cell line Ratio of IC50(actinomycin D alone) / IC50(actinomycin D + modulator) at a concentration of 10 uM
Fold reversion by entry:

Here are 5 molecules together with their reported answers.
Q: Give the measured Fold reversion of C=CCNc1nc(NCC=C)nc(N2CCC(NCCC(c3ccccc3)c3ccccc3)CC2)n1 .
Result: <25

Q: Give the measured Fold reversion of C=CCNc1nc(NCC=C)nc(NCCN2CCC(NC3c4ccccc4CCc4ccccc43)CC2)n1 .
Result: <25

Q: Give the measured Fold reversion of C=CCNc1nc(NCC=C)nc(N2CCC(NCC(c3ccc(F)cc3)c3ccc(F)cc3)CC2)n1 .
Result: 2564

Q: Give the measured Fold reversion of C=CCN(CC=C)c1nc(N(CC=C)CC=C)nc(N2CCC(NCC(c3ccccc3)c3ccccc3)CC2)n1 .
Result: 1

Q: Give the measured Fold reversion of C=CCNc1nc(Cl)nc(N2CCC(NCC3c4ccccc4CCc4ccccc43)CC2)n1 .
Result: 2205

---
Q: Give the measured Fold reversion of C=CCNc1nc(NCC=C)nc(N2CCC(NCC3c4ccccc4CCc4ccccc43)CC2)n1 .
Result: 6021

Q: Give the measured Fold reversion of C=CCNc1nc(NCC=C)nc(N2CCC(NCC(c3ccccc3)(c3ccccc3)c3ccccc3)CC2)n1 .
Result: <25

Q: Give the measured Fold reversion of C=CCNc1nc(NCC=C)nc(NCC2CCN(CC3c4ccccc4CCc4ccccc43)CC2)n1 .
Result: <25

Q: Give the measured Fold reversion of C=CCNc1nc(OC)nc(N2CCC(NCC3c4ccccc4CCc4ccccc43)CC2)n1 .
Result: 1078

---

Fold reversion by entry:
system: DC3F/AD; assay: In vitro activity in DC-3F/AD cell line Ratio of IC50(actinomycin D alone) / IC50(actinomycin D + modulator) at a concentration of 10 uM

Here are 5 compounds together with their reported answers.
Q: Checklist item: Fold reversion tested on DC3F/AD, entry C=CCNc1nc(NCC=C)nc(N2CCC(N(CC)C(c3ccc(F)cc3)c3ccc(F)cc3)CC2)n1 , value?
Result: 1838

Q: Checklist item: Fold reversion tested on DC3F/AD, entry C=CCNc1nc(NCC=C)nc(N2CCN(C(c3ccc(Cl)cc3)c3ccc(Cl)cc3)CC2)n1.CS(=O)(=O)O , value?
Result: 99

Q: Checklist item: Fold reversion tested on DC3F/AD, entry C=CCNc1nc(NCC=C)nc(NCC2CCN(C3c4ccccc4CCc4ccccc43)CC2)n1 , value?
Result: 46

Q: Checklist item: Fold reversion tested on DC3F/AD, entry C=CCNc1nc(NCCC)nc(N2CCC(NCCC(c3ccccc3)c3ccccc3)CC2)n1 , value?
Result: <25

Q: Checklist item: Fold reversion tested on DC3F/AD, entry C=CCNc1cc(N2CCC(NCC(c3ccccc3)c3ccccc3)CC2)nc(NCC=C)n1 , value?
Result: <25

Turning now to a further compound:
Q: Checklist item: Fold reversion tested on DC3F/AD, entry C=CCNc1nc(NCC=C)nc(N2CCC(NCC3c4ccccc4CCc4cc(OC)ccc43)CC2)n1 (centres undefined) , value?
Result: <25
